test system: NCI-H460 lung; assay: NCI-60 one-dose screen, 48 h; conditions: 10 µM unless noted
Compounds without any hit were thinned out: in the full panel of roughly 83,000, 20% have a hit. The source made the active and inactive calls. Rule for the calls: active = growth percent below 10; inactive = the rest.
Output constraint: value belongs to true = active, false = inactive

Some entries whose results are on file:
Query :: Could you check what this test reported for Oc1c(C(c2ccc(F)cc2)N2CCCCC2)ccc2cncnc12 (stereo unspecified) ?
Result :: true

Query :: Could you check what this test reported for CC(=O)c1ccc(Nc2nc(Cl)nc(Oc3c(Cl)cccc3Cl)n2)cc1 ?
Result :: false

Query :: Could you check what this test reported for C=CCN(CCOC(=O)c1ccc([N+](=O)[O-])cc1)CCOC(=O)c1ccc([N+](=O)[O-])cc1 ?
Result :: false

Query :: Could you check what this test reported for CCCNC(=S)N/N=C(\C)c1ccccn1 ?
Result :: false

Others:
Query :: Could you check what this test reported for Cc1cc(O)ccc1C1=NN(c2ccc(S(N)(=O)=O)cc2)C(=O)CC1 ?
Result :: false

Query :: Could you check what this test reported for COc1cc(NC(C)CCCN)c2ncccc2c1Sc1ccc(Cl)cc1 (stereo unspecified) ?
Result :: false
